The reported measurements were obtained from ChEMBL document CHEMBL1201862.

system: SF-268; assay: NCI tumour cell line growth inhibition, 48 h
Active and inactive are the calls of the source. Cut-off read from the data, not from the text of the source: active = GI50 up to about 1.1 µM and inactive = higher.
Bench note: report the call from true (1) = active, false (0) = inactive

These recorded examples may help you get a feel for the data.
- compound: "C[C@]12CC[C@H](O)C=C1CC[C@@H]1[C@@H]2CC[C@]2(C)C(c3ccc(=O)oc3)CC[C@]12O (stereo partly drawn)"
  assigned.class: "true (1)"
- compound: "O=c1nc2occc2cn1C1CC(O)C(CO)O1 (stereo not drawn)"
  assigned.class: "false (0)"
- compound: "C=CCOc1ccc(C(=N/NC(=O)c2ccccc2)/N=N/c2ccccc2)cc1OC"
  assigned.class: "false (0)"
- compound: "COc1cc2c(/C=C3/C(=O)Nc4ccccc43)c(Cl)[nH]c2cc1C"
  assigned.class: "true (1)"
- compound: "O=C(c1cc2ccccc2[nH]1)N1C2CCC1CN(CCOC(c1ccc(F)cc1)c1ccc(F)cc1)CC2 (stereo not drawn)"
  assigned.class: "false (0)"

Inquiry: Record request — test call for C=C1C(=O)[C@]23[C@H](O)[C@H]1CC[C@H]2[C@@]12CO[C@@]3(O)C[C@@H]1C(C)(C)CC[C@@H]2O [MEGATHYRIN A]
Reply text: false (0)

Inquiry: Record request — test call for Oc1c(Br)cc(Br)cc1CN(Cc1cc(Br)cc(Br)c1O)C1CCCCC1
Reply text: false (0)

Inquiry: Record request — test call for O=C1C2=Nc3ccccc3C(O)(C(=O)O)N2c2ccccc21 (stereo not drawn)
Reply text: false (0)

Inquiry: Record request — test call for CN(C)C(=S)SCC(=O)Nc1ccccc1
Reply text: false (0)

Inquiry: Record request — test call for O=c1oc2c(Br)c(O)c(Br)cc2c2ccccc12
Reply text: false (0)

Inquiry: Record request — test call for CC(NC(=O)Cc1ccc(OP(=O)(OCc2ccc([N+](=O)[O-])o2)N(C)CCCCCl)cc1)c1ccc(OCC2CCCCC2)c(C(N)=O)c1 (stereo not drawn)
Reply text: false (0)

Inquiry: Record request — test call for CC(C)c1cccc(C(C)C)c1NC(=O)C(=O)CC(=O)CC(c1ccccc1)c1c(O)oc2ccccc2c1=O (stereo not drawn)
Reply text: false (0)

Inquiry: Record request — test call for NC(=S)NN=Cc1ccccc1OCc1cccc(COc2ccccc2C=NNC(N)=S)n1
Reply text: false (0)
